# System: IgE antibodies from patients
# Assay comment: Wheat epitope mapping (2): overlapping 10-amino-acid peptide fragments shifted by one amino acid;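 as to epitope sequence binding to IgE antibody, rank (Key/Preferably/More preferably): key of grades: preferably = shorter partial sequence still acting as epitope; more preferably = sequence improving IgE binding; key = particularly important sequence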
# Format: binding, human
# Test conditions: serum of patient P18 (WDEIA)
Readout name: epitope sequence binding to IgE antibody, rank (Key/Preferably/More preferably)

Substance | Result
1760 (EVSSYLKKV; REGION 1..9: note = epitope) [compound 1760] | Key
1761 (YLKKVGYN; REGION 1..8: note = epitope) [compound 1761] | Key

---

# Tested on: IgE antibodies from patients
# Assay comment: Wheat epitope mapping (2): overlapping 10-amino-acid peptide fragments shifted by one amino acid;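 as to Rank of partial sequence as epitope binding to IgE antibody: key = sequence deemed particularly important within the common 15-residue sequence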
# Format: binding, human
# Test conditions: serum of patient G4 (adult, general immediate type allergy to wheat); sequence without X
Readout name: Rank of partial sequence as epitope binding to IgE antibody

Substance | Result
1672 (PDKVPFVPIS; REGION 1..10: note = epitope) [compound 1672] | Key
1671 (YNPDKVPF; REGION 1..8: note = epitope) [compound 1671] | Key
